Where do the numbers come from? From patent US20250074867A1.

- protocol: Determination of the pKa of cationic lipids in lipid nanoparticles by TNS fluorescence analysis
endpoint-name: pKa

1) CCCCCCCCCCCOC(=O)CCCCCN(CCO)CCCCCCCC(=O)OCC(CCCCCCCC)CCCCCCCC [Compound A]: 6.01
